- TARGET_SYSTEM: Cathepsin L2 (Homo sapiens)
- Sequence (O60911 whole entry): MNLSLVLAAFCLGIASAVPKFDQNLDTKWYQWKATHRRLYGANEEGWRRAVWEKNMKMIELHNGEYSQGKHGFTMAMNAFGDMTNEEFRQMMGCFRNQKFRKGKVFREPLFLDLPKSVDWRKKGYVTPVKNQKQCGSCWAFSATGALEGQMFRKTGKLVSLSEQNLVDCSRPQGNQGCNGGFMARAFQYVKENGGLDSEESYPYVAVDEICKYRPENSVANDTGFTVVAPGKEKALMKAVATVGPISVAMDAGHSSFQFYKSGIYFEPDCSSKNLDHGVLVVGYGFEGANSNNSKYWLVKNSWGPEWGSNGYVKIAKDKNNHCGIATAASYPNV
pIC50: −log10 of the molar value.
In this section we review reported pIC50 values for a set of compounds.

COMPOUND: CC(NC(=O)c1ccc(OCc2ccccn2)c(C(F)(F)F)c1Cl)C(=O)C(=O)N(C)C (configuration not stated)
RELATION: <
pIC50: 5.00

COMPOUND: CCC(NC(=O)c1cccc(C(F)(F)F)c1Cl)C(=O)C(=O)Nc1ccn[nH]1 (configuration not stated)
RELATION: =
pIC50: 7.53

###

- TARGET_SYSTEM: Cathepsin S (Homo sapiens, UniProt P25774)
- Sequence (P25774 whole entry): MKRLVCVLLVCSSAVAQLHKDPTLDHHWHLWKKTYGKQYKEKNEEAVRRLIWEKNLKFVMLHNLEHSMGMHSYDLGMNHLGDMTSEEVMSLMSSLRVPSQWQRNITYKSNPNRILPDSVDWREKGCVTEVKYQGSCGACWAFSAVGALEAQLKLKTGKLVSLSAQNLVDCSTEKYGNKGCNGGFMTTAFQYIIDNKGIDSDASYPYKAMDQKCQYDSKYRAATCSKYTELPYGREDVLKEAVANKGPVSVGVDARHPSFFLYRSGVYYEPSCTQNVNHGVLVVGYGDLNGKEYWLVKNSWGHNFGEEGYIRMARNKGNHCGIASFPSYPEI
- TEST_DETAILS: Inhibition of cathepsin S in human JY cells assessed as Lip10 accumulation by Western blotting
- Format: cell-based

COMPOUND: CCC(NC(=O)c1cccc(C(F)(F)F)c1Cl)C(=O)C(=O)Nc1ccn[nH]1 (stereo not drawn)
TARGET_SYSTEM: Cathepsin S (Homo sapiens, UniProt P25774)
UNIT_SYMBOL: µM
IC50: 1.3
--
COMPOUND: CCC(NC(=O)c1ccc(OCc2ccccn2)c(C(F)(F)F)c1Cl)C(=O)C(N)=O (stereo not drawn)
TARGET_SYSTEM: Cathepsin S (Homo sapiens, UniProt P25774)
UNIT_SYMBOL: µM
IC50: 1.92
--
COMPOUND: CCC(NC(=O)c1ccc(OCc2ccccn2)c(C(F)(F)F)c1Cl)C(=O)C(=O)Nc1ccn(C)n1 (stereo not drawn)
TARGET_SYSTEM: Cathepsin S (Homo sapiens, UniProt P25774)
UNIT_SYMBOL: µM
IC50: 0.078

###

- TARGET_SYSTEM: Cathepsin K (Homo sapiens)
- Sequence (P43235 whole entry): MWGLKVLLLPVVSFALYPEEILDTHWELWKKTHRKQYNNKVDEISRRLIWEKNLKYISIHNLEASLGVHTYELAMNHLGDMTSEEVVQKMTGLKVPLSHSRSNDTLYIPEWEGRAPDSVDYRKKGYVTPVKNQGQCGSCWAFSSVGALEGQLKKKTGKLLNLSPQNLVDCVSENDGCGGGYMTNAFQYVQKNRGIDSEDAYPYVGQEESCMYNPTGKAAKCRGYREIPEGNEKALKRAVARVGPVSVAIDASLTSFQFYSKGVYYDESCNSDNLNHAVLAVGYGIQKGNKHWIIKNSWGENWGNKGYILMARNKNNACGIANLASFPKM

COMPOUND: CC(NC(=O)c1cccc(C(F)(F)F)c1Cl)C(=O)C(=O)Nc1ccn(C)n1 (stereo not drawn)
UNIT_SYMBOL: nM
IC50: 33.1

COMPOUND: CCCCC(NC(=O)c1ccc(OCc2ccccn2)c(C(F)(F)F)c1Cl)C(=O)C(=O)Nc1ccn(C)n1 (stereo not drawn)
UNIT_SYMBOL: nM
IC50: 47.9

COMPOUND: CCOc1ccc(C(=O)NC(C)C(=O)C(N)=O)c(Cl)c1C(F)(F)F (stereo not drawn)
UNIT_SYMBOL: nM
IC50: 195

COMPOUND: CCC(C=O)NC(=O)c1cccc(C(F)(F)F)c1Cl (stereo not drawn)
UNIT_SYMBOL: nM
IC50: 32

COMPOUND: CC(NC(=O)c1cccc(C(F)(F)F)c1Cl)C(=O)C(=O)Nc1cc[nH]n1 (stereo not drawn)
UNIT_SYMBOL: nM
IC50: 51.3

COMPOUND: CC(C)C(NC(=O)c1ccc(OCc2ccccn2)c(C(F)(F)F)c1Cl)C(=O)C(=O)Nc1ccn(C)n1 (stereo not drawn)
UNIT_SYMBOL: nM
IC50: 11.5

COMPOUND: CCC(NC(=O)c1cccc(C(F)(F)F)c1Cl)C(=O)C(=O)Nc1ccn[nH]1 (stereo not drawn)
UNIT_SYMBOL: nM
IC50: 11.7

COMPOUND: CCOc1ccc(C(=O)NC(C)C(=O)C(=O)Nc2ccn[nH]2)c(Cl)c1C(F)(F)F (stereo not drawn)
UNIT_SYMBOL: nM
IC50: 91.2

###

- TARGET_SYSTEM: Cathepsin B (Homo sapiens, UniProt P07858)
QUANTITY_NAME: IC50 (µM)

MOLECULE: CCC(NC(=O)c1cccc(C(F)(F)F)c1Cl)C(=O)C(=O)Nc1ccn[nH]1 (stereo unspecified)
TARGET_SYSTEM: Cathepsin B (Homo sapiens, UniProt P07858)
QUANTITY_NAME: IC50
REPORTED_MEASUREMENT: 5.75

###

In this section we review reported pIC50 values for a set of molecules.
- TARGET_SYSTEM: Cathepsin S (Homo sapiens, UniProt P25774)
- TEST_DETAILS: Inhibition of human cathepsin S by fluorescence assay
pIC50: −log10 of the molar value.

MOLECULE: CC(NC(=O)c1ccc(OCc2ccccn2)c(C(F)(F)F)c1Cl)C(=O)C(=O)Nc1ccn(C)n1 (stereo not given)
RELATION: =
pIC50: 9.00
--
MOLECULE: O=CCNC(=O)c1cccc(C(F)(F)F)c1
RELATION: <
pIC50: 5.00
--
MOLECULE: CC(C=O)NC(=O)c1cccc(C(F)(F)F)c1Cl (stereo not given)
RELATION: =
pIC50: 6.96
--
MOLECULE: CCC(C=O)NC(=O)c1cccc(C(F)(F)F)c1 (stereo not given)
RELATION: =
pIC50: 5.97
--
MOLECULE: CCCCC(NC(=O)c1ccc(OCc2ccccn2)c(C(F)(F)F)c1Cl)C(=O)C(=O)Nc1ccn(C)n1 (stereo not given)
RELATION: =
pIC50: 8.72
--
MOLECULE: CCC(NC(=O)c1ccc(OCc2ccccn2)c(C(F)(F)F)c1Cl)C(=O)C(=O)Nc1ccn(C)n1 (stereo not given)
RELATION: =
pIC50: 8.96
--
MOLECULE: CCC(NC(=O)c1cccc(C(F)(F)F)c1Cl)C(=O)C(=O)Nc1ccn[nH]1 (stereo not given)
RELATION: =
pIC50: 8.64
--
MOLECULE: CCOc1ccc(C(=O)NC(C)C(=O)C(=O)Nc2ccn[nH]2)c(Cl)c1C(F)(F)F (stereo not given)
RELATION: =
pIC50: 8.54
--
MOLECULE: CC(NC(=O)c1ccc(OCc2ccccn2)c(C(F)(F)F)c1Cl)C(=O)C(=O)N(C)C (stereo not given)
RELATION: <
pIC50: 5.00
--
MOLECULE: CC(NC(=O)c1ccc(OCc2ccccn2)c(C(F)(F)F)c1Cl)C(=O)C(N)=O (stereo not given)
RELATION: =
pIC50: 8.32

###

In this section we review reported IC50 values for a set of compounds.
- TARGET_SYSTEM: Cathepsin S (Homo sapiens)
- TEST_DETAILS: Inhibition of human cathepsin S by fluorescence assay
QUANTITY_NAME: IC50

COMPOUND: N#CCNC(=O)c1cccc(C(F)(F)F)c1
QUANTITY_NAME: IC50
REPORTED_MEASUREMENT: > 10 µM
//
COMPOUND: CC(NC(=O)c1cccc(C(F)(F)F)c1Cl)C(=O)C(=O)Nc1ccn(C)n1 (stereo not drawn)
QUANTITY_NAME: IC50
REPORTED_MEASUREMENT: 0.0085 µM
//
COMPOUND: CCC(C=O)NC(=O)c1cccc(C(F)(F)F)c1OC (stereo not drawn)
QUANTITY_NAME: IC50
REPORTED_MEASUREMENT: 0.692 µM
//
COMPOUND: CC(C)C(NC(=O)c1ccc(OCc2ccccn2)c(C(F)(F)F)c1Cl)C(=O)C(=O)Nc1ccn(C)n1 (stereo not drawn)
QUANTITY_NAME: IC50
REPORTED_MEASUREMENT: 0.0023 µM
//
COMPOUND: Cc1cc(NC(=O)C(=O)C(C)NC(=O)c2cccc(C(F)(F)F)c2Cl)[nH]n1 (stereo not drawn)
QUANTITY_NAME: IC50
REPORTED_MEASUREMENT: 0.0105 µM
//
COMPOUND: CCC(C=O)NC(=O)c1cccc(C(F)(F)F)c1C (stereo not drawn)
QUANTITY_NAME: IC50
REPORTED_MEASUREMENT: 0.018 µM
//
COMPOUND: CC(NC(=O)c1cccc(C(F)(F)F)c1Cl)C(=O)C(=O)Nc1cc[nH]n1 (stereo not drawn)
QUANTITY_NAME: IC50
REPORTED_MEASUREMENT: 0.0141 µM
//
COMPOUND: CCOc1ccc(C(=O)NC(C)C(=O)C(N)=O)c(Cl)c1C(F)(F)F (stereo not drawn)
QUANTITY_NAME: IC50
REPORTED_MEASUREMENT: 0.011 µM
//
COMPOUND: CCC(C=O)NC(=O)c1cccc(C(F)(F)F)c1Cl (stereo not drawn)
QUANTITY_NAME: IC50
REPORTED_MEASUREMENT: 0.031 µM
//
COMPOUND: CCC(NC(=O)c1ccc(OCc2ccccn2)c(C(F)(F)F)c1Cl)C(=O)C(N)=O (stereo not drawn)
QUANTITY_NAME: IC50
REPORTED_MEASUREMENT: 0.0011 µM
//
COMPOUND: CCC(C=O)NC(=O)c1cccc(C(F)(F)F)c1F (stereo not drawn)
QUANTITY_NAME: IC50
REPORTED_MEASUREMENT: 0.036 µM
//
COMPOUND: CNC(=O)C(=O)C(C)NC(=O)c1ccc(OCc2ccccn2)c(C(F)(F)F)c1Cl (stereo not drawn)
QUANTITY_NAME: IC50
REPORTED_MEASUREMENT: 0.0195 µM
//
COMPOUND: CC(NC(=O)c1cccc(C(F)(F)F)c1Cl)C(=O)C(N)=O (stereo not drawn)
QUANTITY_NAME: IC50
REPORTED_MEASUREMENT: 0.0309 µM
